- system: Proton Pump (H^+ /K^+ ATPase) (Oryctolagus cuniculus)
- Construct: The microsomes thus obtained were used as an enzyme source of the in vitro enzyme reaction study of proton pump; from tissue; host or cells: rabbit stomach, mucosal scrapings, microsomes (180,000 g pellet)
- protocolDetails: Inhibition of Proton Pump (H+/K+ ATPase) Activity, in vitro enzyme reaction (Experiment 1)
- Format: biochemical, New Zealand white rabbit
- testSettings: K+-stimulated H+/K+ ATPase activity, rabbit gastric microsomes, pH 7.2, 37° C., 15 min prereaction, 30 min reaction; read-out: IC50 of test compound, inhibition (50%) of the proton pump activity
Assign pIC50 to each entry below.
Answer as the number alone; pIC50 is minus log10 of concentration in mol/L.

Input: Using the record for COc1cccc2c(N3CCc4ccccc4C3C)nc(N(C)c3ccc(F)cc3)nc12.Cl (stereo not shown) [Example 41, Hydrochloride] , report its pIC50.
Output: 5.42

Input: Using the record for COc1cccc2c(N3CCc4cccc5c4C3CC5)nc(Nc3ccc(F)cc3)nc12.Cl (stereo not shown) [Example 58, Hydrochloride] , report its pIC50.
Output: 4.87

Input: Using the record for CCC1c2ccccc2CCN1c1nc(Nc2ccc(F)cc2)nc2c(OC)cccc12.Cl (stereo not shown) [Example 45, Hydrochloride] , report its pIC50.
Output: 5.05

====

- system: Proton Pump (H^+ /K^+ ATPase) (Oryctolagus cuniculus, UniProt P27112)
- Construct: The microsomes thus obtained were used as an enzyme source of the in vitro enzyme reaction study of proton pump; from tissue; host or cells: rabbit stomach, mucosal scrapings, microsomes (180,000 g pellet)
- Sequence (P27112 whole entry): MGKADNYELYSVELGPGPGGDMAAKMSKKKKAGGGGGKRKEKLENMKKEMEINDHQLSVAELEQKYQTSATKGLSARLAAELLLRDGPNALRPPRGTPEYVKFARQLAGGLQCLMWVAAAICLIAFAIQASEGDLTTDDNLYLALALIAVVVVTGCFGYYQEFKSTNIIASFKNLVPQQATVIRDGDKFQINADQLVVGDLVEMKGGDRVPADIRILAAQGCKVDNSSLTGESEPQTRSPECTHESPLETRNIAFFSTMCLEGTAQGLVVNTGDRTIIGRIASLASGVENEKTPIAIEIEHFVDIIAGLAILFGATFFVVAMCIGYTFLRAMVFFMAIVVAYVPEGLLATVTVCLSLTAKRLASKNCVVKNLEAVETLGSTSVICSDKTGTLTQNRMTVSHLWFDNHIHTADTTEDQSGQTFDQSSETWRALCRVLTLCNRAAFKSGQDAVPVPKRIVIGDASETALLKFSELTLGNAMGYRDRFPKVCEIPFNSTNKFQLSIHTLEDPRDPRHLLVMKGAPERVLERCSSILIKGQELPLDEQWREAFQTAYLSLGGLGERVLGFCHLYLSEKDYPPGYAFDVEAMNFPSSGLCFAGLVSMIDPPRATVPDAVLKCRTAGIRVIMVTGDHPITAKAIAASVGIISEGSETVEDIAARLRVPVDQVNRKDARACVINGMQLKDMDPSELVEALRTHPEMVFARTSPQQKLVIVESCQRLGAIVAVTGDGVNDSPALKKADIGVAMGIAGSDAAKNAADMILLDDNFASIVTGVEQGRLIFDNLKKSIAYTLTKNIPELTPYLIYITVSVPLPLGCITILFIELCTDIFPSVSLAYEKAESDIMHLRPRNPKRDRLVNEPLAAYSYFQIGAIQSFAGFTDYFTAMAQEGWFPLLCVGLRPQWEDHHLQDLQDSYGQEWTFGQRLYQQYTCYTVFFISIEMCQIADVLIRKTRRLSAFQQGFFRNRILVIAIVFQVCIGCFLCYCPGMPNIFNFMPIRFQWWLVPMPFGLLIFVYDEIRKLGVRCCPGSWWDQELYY
- Sequence (P18597 whole entry partner): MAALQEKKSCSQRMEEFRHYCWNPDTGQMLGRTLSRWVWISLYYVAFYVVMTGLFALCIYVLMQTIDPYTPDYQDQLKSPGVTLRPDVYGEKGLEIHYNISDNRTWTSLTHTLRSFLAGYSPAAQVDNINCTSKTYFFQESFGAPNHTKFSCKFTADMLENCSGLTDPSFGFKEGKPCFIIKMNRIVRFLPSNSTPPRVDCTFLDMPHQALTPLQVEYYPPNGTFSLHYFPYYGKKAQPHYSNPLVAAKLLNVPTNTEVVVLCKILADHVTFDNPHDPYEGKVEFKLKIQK
- protocolDetails: Inhibition of Proton Pump (H+/K+ ATPase) Activity, in vitro enzyme reaction (Experiment 1)
- Format: biochemical, New Zealand white rabbit
- testSettings: K+-stimulated H+/K+ ATPase activity, rabbit gastric microsomes, pH 7.2, 37° C., 15 min prereaction, 30 min reaction; read-out: IC50 of test compound, inhibition (50%) of the proton pump activity
Counter-ions that a name gives are not always drawn.
Assign pIC50 to each entry below.
Answer as the number alone; pIC50 is minus log10 of concentration in mol/L.

Input: Using the record for COc1cccc2c(N3CCc4ccccc4[C@@H]3C)nc(Nc3ccc(F)cc3C)nc12.Cl [Example 36, Hydrochloride] , report its pIC50.
Output: 5.40

Input: Using the record for Cc1cc(F)ccc1Nc1nc(N2CCc3ccccc3C2)c2ccccc2n1.Cl [Example 22, Hydrochloride] , report its pIC50.
Output: 6.15

Input: Using the record for COc1cccc2c(N3CCc4ccccc4C3C)nc(N(C)c3ccccc3)nc12.Cl (stereo not drawn) [Example 40, Hydrochloride] , report its pIC50.
Output: 5.89

Input: Using the record for COc1cccc2c(N3CCc4cccc(C)c4C3C)nc(Nc3ccc(F)cc3C)nc12.Cl (stereo not drawn) [Example 53, Hydrochloride] , report its pIC50.
Output: 5.70

Input: Using the record for Cc1cc(F)ccc1Nc1nc(N2CCc3cccc4c3C2CC4)c2ccccc2n1.Cl (stereo not drawn) [Example 27, Hydrochloride] , report its pIC50.
Output: 5.54

Input: Using the record for CN(c1ccc(F)cc1)c1nc(N2CCc3ccccc3C2)c2ccccc2n1.Cl [Example 20, Hydrochloride] , report its pIC50.
Output: 5.08

Input: Using the record for Cc1ccccc1Nc1nc(N2CCc3ccccc3C2)c2ccccc2n1 [Example 21] , report its pIC50.
Output: 5.92

Input: Using the record for COc1cccc2c(N3CCc4ccccc4C3)nc(Nc3ccc(F)cc3C)nc12.Cl [Example 31, Hydrochloride] , report its pIC50.
Output: 5.70

Input: Using the record for CCOc1cccc2c(N3CCc4ccccc4C3C)nc(Nc3ccc(F)cc3C)nc12.Cl (stereo not drawn) [Example 38, Hydrochloride] , report its pIC50.
Output: 5.92

Input: Using the record for CN(c1ccccc1)c1nc(N2CCc3ccccc3C2)c2ccccc2n1 [Example 19] , report its pIC50.
Output: 5.28

Input: Using the record for COc1cccc2c(N3CCc4ccccc4C3(C)C)nc(Nc3ccc(F)cc3)nc12.Cl [Example 50, Hydrochloride] , report its pIC50.
Output: 5.22

Input: Using the record for COc1cccc2c(N3CCc4cccc(C)c4C3C)nc(Nc3ccc(F)cc3)nc12.Cl (stereo not drawn) [Example 52, Hydrochloride] , report its pIC50.
Output: 5.12

Input: Using the record for COc1cccc2c(N3CCc4ccccc4C3)nc(Nc3ccccc3)nc12.Cl [Example 28, Hydrochloride] , report its pIC50.
Output: 5.92

Input: Using the record for COc1cccc2c(N3CCc4ccccc4C3)nc(N(C)c3ccccc3)nc12.Cl [Example 29, Hydrochloride] , report its pIC50.
Output: 5.31

Input: Using the record for COc1cccc2c(N3CCc4ccccc4C3(C)C)nc(Nc3ccc(F)cc3C)nc12 [Example 51, Hydrochloride] , report its pIC50.
Output: 5.21

Input: Using the record for CC1c2ccccc2CCN1c1nc(Nc2ccc(F)cc2)nc2ccccc12.Cl (stereo not drawn) [Example 25, Hydrochloride] , report its pIC50.
Output: 5.57
